Assay protocol: chemical genetic growth profiling, strain panel (AID 1159580);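 further: tested at 20 µM; growth read once vehicle control cultures reached saturation at 30 °C; 1 = growth at the plate median or of vehicle wells; lower values mean less growth of the strain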
Experimental parameters: S. cerevisiae deletion strains, growth OD, locus YMR058W, strain fet3, stronger effect = lower value
The whole screen tested about 5,500 compounds, of which about 2,000 (36%) were called active. Not shown: some 18% with an inconclusive outcome. Some of the results follow.
Readout kind: normalized growth
The reply should be a number, written without any unit.

Here's what some known entries look like.
Molecule	normalized growth
COc1ccc(CN(CCN(C)C)c2ncccn2)cc1	1.03
CC12CCC(CC1)C(C)(C)O2	0.98
COc1ccc(/C=C/c2cc(O)cc(O)c2)cc1	1
CC1(C)O[C@@H]2CC3C4CCC5=CC(=O)C=C[C@]5(C)C4[C@@H](O)C[C@]3(C)[C@]2(C(=O)CO)O1 (some centres not stated)	1.02
NCCCCN=C(N)N	1.02

query: Provide only the value of recorded normalized growth for COC(=O)[C@H]1[C@H]2C[C@@H]3c4[nH]c5cc(OC)ccc5c4CCN3C[C@H]2C[C@@H](OC(=O)c2cc(OC)c(OC)c(OC)c2)[C@@H]1OC
result: 0.986

query: Provide only the value of recorded normalized growth for NC(=O)c1ccc(N)nc1
result: 0.999
